# TEST_SUMMARY: Selectivity is defined as the ratio of the IC50(hncNOS) to IC50(hiNOS)
MEASURED_PARAMETER: Selectivity

Illustrative cases are given below, each with its answer.
In [3]: df
Out[3]:
          compound  reported
0       NC1=NCCCN1       0.7
1        NC1=NCCC1       0.8
2   N/C1=N/CCCCCC1         1
3  N/C1=N/CCCCCCC1       0.7

I: NC1=NCCCO1
II: CC(=N)NCCCC[C@H](N)C(=O)O [L-NIL]
QUERY: // pick larger Selectivity from pair: I vs II Identify your pick by its label.
RESULT: II

I: NC1=NCCCCC1
II: NC1=NCCCS1
QUERY: Dear colleague, could you let me know whether I or II has the lower recorded Selectivity? Thanks. Identify your pick by its label.
RESULT: II
